- System Name: T1, SNTA1, Q13424
- T1 sequence (Q13424 82-180, limits assumed, looked up): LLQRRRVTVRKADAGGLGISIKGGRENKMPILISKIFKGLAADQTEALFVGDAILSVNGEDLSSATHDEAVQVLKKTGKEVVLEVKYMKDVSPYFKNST
- Assay Explanation: holdup assay
- Design: key: below the threshold = too weak to quantify, mostly under pKd 3.1 to 4
- Condition Details: plain residues with an end cap or a label only (N-terminal biotin on a linker: ado-ado)
Recorded Endpoint: pKd

- NVYGIESVKI [GRIA2, P42262]: below the threshold
- LAHVKHKEQI [AQP3, Q92482]: below the threshold
- LPAVCYDIDI [PTTG2, Q9NZH5]: below the threshold
- QKAPTKEFYA [SDC2, P34741]: below the threshold
